- Test system: Spodoptera littoralis
- Method summary: B-1 insecticidal stomach-poison action on sprayed cotton plants
- Format: in vivo
- Measurement setup: 12,5 ppm active ingredient, after 24 hours, L1 larvae on cotton plants
- Text: B-1. Insektizide Frassgift-Wirkung bei Spodoptera littoralis Eingetopfe Baumwollpflanzen im 5-Blatt-Stadium werden mit einer acetonisch/wässrigen Versuchslösung besprüht, die 3, 12,5 oder 50 ppm der zu prüfenden Verbindung enthält. Nach dem Antrocknen des Belags werden die Pflanzen mit ca. 30 Larven (L₁-Stadium) von Spodoptera littoralis besetzt. Pro Versuchsverbindung und pro Test-Spezies verwendet man zwei Pflanzen. […]

Molecule	System tested	Abtötung
CCC1OC2(CCC1C)CC1CC(CC=C(C)C(OC(=O)NC3CCCCC3)C(C)C=CC=C3COC4C(O)C(C)=CC(C(=O)O1)C34O)O2 (stereo not shown)	Spodoptera littoralis	vollständige Abtötung
CC[C@H]1O[C@]2(CC[C@@H]1C)C[C@@H]1C[C@@H](C/C=C(\C)[C@H](OC(=O)NC(C)(C)C)[C@@H](C)/C=C/C=C3\CO[C@@H]4[C@H](O)C(C)=C[C@@H](C(=O)O1)[C@]34O)O2	Spodoptera littoralis	vollständige Abtötung
CC[C@H]1O[C@]2(CC[C@@H]1C)C[C@@H]1C[C@@H](C/C=C(\C)[C@H](OC(=O)N(C)C)[C@@H](C)/C=C/C=C3\CO[C@@H]4[C@H](O)C(C)=C[C@@H](C(=O)O1)[C@]34O)O2	Spodoptera littoralis	vollständige Abtötung
CCC1OC2(CCC1C)CC1CC(CC=C(C)C(OC(=O)Nc3ccc(Br)cc3)C(C)C=CC=C3COC4C(O)C(C)=CC(C(=O)O1)C34O)O2 (stereo not shown)	Spodoptera littoralis	vollständige Abtötung
CCC1OC2(CCC1C)CC1CC(CC=C(C)C(OC(=O)Nc3ccccc3)C(C)C=CC=C3COC4C(O)C(C)=CC(C(=O)O1)C34O)O2 (stereo not shown)	Spodoptera littoralis	vollständige Abtötung
CCC1OC2(CCC1C)CC1CC(CC=C(C)C(OC(=O)Nc3ccccc3C(F)(F)F)C(C)C=CC=C3COC4C(O)C(C)=CC(C(=O)O1)C34O)O2 (stereo not shown)	Spodoptera littoralis	vollständige Abtötung
CNC(=O)OC1C(C)=CCC2CC(CC3(CCC(C)C(C(C)C)O3)O2)OC(=O)C2C=C(C)C(O)C3OCC(=CC=CC1C)C23O (stereo not shown)	Spodoptera littoralis	vollständige Abtötung
